Where these numbers come from: ChEMBL document CHEMBL1143531

- System: Streptococcus pneumoniae
- protocolDescription: In vitro minimum inhibitory concentration against penicillin resistant Streptococcus pneumoniae A28272
- Type: functional
Below, each of the compounds is paired with its reported MIC value.
Report only the number, with the unit µg/mL understood.

Input line: May I ask what MIC has been recorded for CO/C(C)=C1/NC(=O)C([C@@H](C)O)NC(=O)c2csc(n2)-c2cc(O)c(-c3nc(C(=O)NC(SCCc4nnn[nH]4)C(N)=O)cs3)nc2-c2csc(n2)[C@@H]2COC(=O)c3c4c5c(cccc5n3O)COC(=O)[C@@H](O[C@H]3C[C@](C)(O)[C@H](N(C)C)[C@H](C)O3)[C@@H](OC4)[C@H](NC(=O)c3csc1n3)c1nc(cs1)C(=O)N2 (some centres not stated) ?
Output line: 0.25

The record that follows has no MIC shown yet.
Input line: May I ask what MIC has been recorded for CO/C(C)=C1/NC(=O)C([C@@H](C)O)NC(=O)c2csc(n2)-c2cc(O)c(-c3nc(C(=O)NC(SCCP(=O)([O-])O)C(N)=O)cs3)nc2-c2csc(n2)[C@@H]2COC(=O)c3c4c5c(cccc5n3O)COC(=O)[C@@H](O[C@H]3C[C@](C)(O)[C@H](N(C)C)[C@H](C)O3)[C@@H](OC4)[C@H](NC(=O)c3csc1n3)c1nc(cs1)C(=O)N2.[Na+] (some centres not stated) ?
Output line: 0.25

* * *

- Test system: Streptococcus pneumoniae
- protocolDescription: In vitro minimum inhibitory concentration against penicillin resistant Streptococcus pneumoniae A28272
- Format: functional
assayMetric: MIC (mg/L)
Report only the number, with the unit mg/L understood.

Worked set:
Input line: May I ask what MIC has been recorded for CO/C(C)=C1/NC(=O)C([C@@H](C)O)NC(=O)c2csc(n2)-c2cc(O)c(-c3nc(C(=O)NC(SCC(=O)O)C(N)=O)cs3)nc2-c2csc(n2)[C@@H]2COC(=O)c3c4c5c(cccc5n3O)COC(=O)[C@@H](O[C@H]3C[C@](C)(O)[C@H](N(C)C)[C@H](C)O3)[C@@H](OC4)[C@H](NC(=O)c3csc1n3)c1nc(cs1)C(=O)N2 (stereo partly drawn) ?
Output line: 0.125

Input line: Same question, CO/C(C)=C1/NC(=O)C([C@@H](C)O)NC(=O)c2csc(n2)-c2cc(O)c(-c3nc(C(=O)NC(SC(CC(=O)O)C(=O)O)C(N)=O)cs3)nc2-c2csc(n2)[C@@H]2COC(=O)c3c4c5c(cccc5n3O)COC(=O)[C@@H](O[C@H]3C[C@](C)(O)[C@H](N(C)C)[C@H](C)O3)[C@@H](OC4)[C@H](NC(=O)c3csc1n3)c1nc(cs1)C(=O)N2 (stereo partly drawn) this time
Output line: 0.25

The record that follows has no MIC shown yet.
Input line: May I ask what MIC has been recorded for CO/C(C)=C1/NC(=O)C([C@@H](C)O)NC(=O)c2csc(n2)-c2cc(O)c(-c3nc(C(=O)NC(SCC(N)C(=O)O)C(N)=O)cs3)nc2-c2csc(n2)[C@@H]2COC(=O)c3c4c5c(cccc5n3O)COC(=O)[C@@H](O[C@H]3C[C@](C)(O)[C@H](N(C)C)[C@H](C)O3)[C@@H](OC4)[C@H](NC(=O)c3csc1n3)c1nc(cs1)C(=O)N2 (stereo partly drawn) ?
Output line: 2

* * *

- Tested on: Streptococcus pneumoniae
- protocolDescription: In vitro minimum inhibitory concentration against penicillin resistant Streptococcus pneumoniae A28272
- Assay type: functional
Satisfied if MIC is below 0.03 µg/mL. Not satisfied if not; exact matches included in Not satisfied.

Input line: Say whether its MIC is strictly beneath 0.03 µg/mL. Entry: CO/C(C)=C1/NC(=O)C([C@@H](C)O)NC(=O)c2csc(n2)-c2cc(O)c(-c3nc(C(=O)NC(SCCC(=O)O)C(N)=O)cs3)nc2-c2csc(n2)[C@@H]2COC(=O)c3c4c5c(cccc5n3O)COC(=O)[C@@H](O[C@H]3C[C@](C)(O)[C@H](N(C)C)[C@H](C)O3)[C@@H](OC4)[C@H](NC(=O)c3csc1n3)c1nc(cs1)C(=O)N2 (stereo partly specified)
Output line: Satisfied

Input line: Same question, CO/C(C)=C1/NC(=O)C([C@@H](C)O)NC(=O)c2csc(n2)-c2cc(O)c(-c3nc(C(=O)NC(SCCN(C)C)C(N)=O)cs3)nc2-c2csc(n2)[C@@H]2COC(=O)c3c4c5c(cccc5n3O)COC(=O)[C@@H](O[C@H]3C[C@](C)(O)[C@H](N(C)C)[C@H](C)O3)[C@@H](OC4)[C@H](NC(=O)c3csc1n3)c1nc(cs1)C(=O)N2 (stereo partly specified) this time
Output line: Satisfied

Input line: Same question, CCN(CC)CCS(=O)(=O)C(NC(=O)c1csc(-c2nc3c(cc2O)-c2nc(cs2)C(=O)NC([C@@H](C)O)C(=O)N/C(=C(\C)OC)c2nc(cs2)C(=O)N[C@@H]2c4nc(cs4)C(=O)N[C@@H](COC(=O)c4c5c6c(cccc6n4O)COC(=O)[C@@H](O[C@H]4C[C@](C)(O)[C@H](N(C)C)[C@H](C)O4)[C@H]2OC5)c2nc-3cs2)n1)C(N)=O (stereo partly specified) this time
Output line: Satisfied

Input line: Same question, CO/C(C)=C1/NC(=O)C([C@@H](C)O)NC(=O)c2csc(n2)-c2cc(O)c(-c3nc(C(=O)NC(SCC(NC(C)=O)C(=O)O)C(N)=O)cs3)nc2-c2csc(n2)[C@@H]2COC(=O)c3c4c5c(cccc5n3O)COC(=O)[C@@H](O[C@H]3C[C@](C)(O)[C@H](N(C)C)[C@H](C)O3)[C@@H](OC4)[C@H](NC(=O)c3csc1n3)c1nc(cs1)C(=O)N2 (stereo partly specified) this time
Output line: Not satisfied

As a next step, examine the compound that follows.
Input line: Say whether its MIC is strictly beneath 0.03 µg/mL. Entry: CO/C(C)=C1/NC(=O)C([C@@H](C)O)NC(=O)c2csc(n2)-c2cc(O)c(-c3nc(C(=O)NC(SCCS(=O)(=O)[O-])C(N)=O)cs3)nc2-c2csc(n2)[C@@H]2COC(=O)c3c4c5c(cccc5n3O)COC(=O)[C@@H](O[C@H]3C[C@](C)(O)[C@H](N(C)C)[C@H](C)O3)[C@@H](OC4)[C@H](NC(=O)c3csc1n3)c1nc(cs1)C(=O)N2.[Na+] (stereo partly specified)
Output line: Not satisfied

* * *

- Tested on: Streptococcus pneumoniae
- protocolDescription: In vitro minimum inhibitory concentration against penicillin resistant Streptococcus pneumoniae A28272
- Type: functional
assayMetric: MIC (µg/mL)
Report only the number, with the unit µg/mL understood.

Input line: May I ask what MIC has been recorded for C=C(NC(=O)c1csc(-c2nc3c(cc2O)-c2nc(cs2)C(=O)N[C@@H]([C@@H](C)O)C(=O)N/C(=C(\C)OC)c2nc(cs2)C(=O)N[C@@H]2c4nc(cs4)C(=O)N[C@@H](COC(=O)c4c5c6c(cccc6n4O)COC(=O)[C@@H](O[C@H]4C[C@](C)(O)[C@H](N(C)C)[C@H](C)O4)[C@H]2OC5)c2nc-3cs2)n1)C(N)=O [MJ347-81F4 A] ?
Output line: 0.002

New cases:
Input line: May I ask what MIC has been recorded for CO/C(C)=C1/NC(=O)C([C@@H](C)O)NC(=O)c2csc(n2)-c2cc(O)c(-c3nc(C(=O)NC(SCCN=C(N)N)C(N)=O)cs3)nc2-c2csc(n2)[C@@H]2COC(=O)c3c4c5c(cccc5n3O)COC(=O)[C@@H](O[C@H]3C[C@](C)(O)[C@H](N(C)C)[C@H](C)O3)[C@@H](OC4)[C@H](NC(=O)c3csc1n3)c1nc(cs1)C(=O)N2 (stereo partly drawn) ?
Output line: 2

Input line: Same question, CCN(CC)CCSC(NC(=O)c1csc(-c2nc3c(cc2O)-c2nc(cs2)C(=O)NC([C@@H](C)O)C(=O)N/C(=C(\C)OC)c2nc(cs2)C(=O)N[C@@H]2c4nc(cs4)C(=O)N[C@@H](COC(=O)c4c5c6c(cccc6n4O)COC(=O)[C@@H](O[C@H]4C[C@](C)(O)[C@H](N(C)C)[C@H](C)O4)[C@H]2OC5)c2nc-3cs2)n1)C(N)=O (stereo partly drawn) this time
Output line: 0.015

* * *

- Test system: Streptococcus pneumoniae
- protocolDescription: In vitro minimum inhibitory concentration against penicillin resistant Streptococcus pneumoniae A28272
- Type: functional
assayMetric: MIC (µg/mL)
Report only the number, with the unit µg/mL understood.

Input line: May I ask what MIC has been recorded for CO/C(C)=C1/NC(=O)C([C@@H](C)O)NC(=O)c2csc(n2)-c2cc(O)c(-c3nc(C(=O)NC(SC[C@@H]4NC(=O)NC4=O)C(N)=O)cs3)nc2-c2csc(n2)[C@@H]2COC(=O)c3c4c5c(cccc5n3O)COC(=O)[C@@H](O[C@H]3C[C@](C)(O)[C@H](N(C)C)[C@H](C)O3)[C@@H](OC4)[C@H](NC(=O)c3csc1n3)c1nc(cs1)C(=O)N2 (stereo partly drawn) ?
Output line: 0.03

Input line: Same question, CO/C(C)=C1/NC(=O)C([C@@H](C)O)NC(=O)c2csc(n2)-c2cc(O)c(-c3nc(C(=O)NC(SC4CN5CCC4C5)C(N)=O)cs3)nc2-c2csc(n2)[C@@H]2COC(=O)c3c4c5c(cccc5n3O)COC(=O)[C@@H](O[C@H]3C[C@](C)(O)[C@H](N(C)C)[C@H](C)O3)[C@@H](OC4)[C@H](NC(=O)c3csc1n3)c1nc(cs1)C(=O)N2 (stereo partly drawn) this time
Output line: 0.25

Input line: Same question, CO/C(C)=C1/NC(=O)C([C@@H](C)O)NC(=O)c2csc(n2)-c2cc(O)c(-c3nc(C(=O)NC(SCCc4cnccn4)C(N)=O)cs3)nc2-c2csc(n2)[C@@H]2COC(=O)c3c4c5c(cccc5n3O)COC(=O)[C@@H](O[C@H]3C[C@](C)(O)[C@H](N(C)C)[C@H](C)O3)[C@@H](OC4)[C@H](NC(=O)c3csc1n3)c1nc(cs1)C(=O)N2 (stereo partly drawn) this time
Output line: 0.015
